Recorded mIL12RB2/control (ELISA) by entry
Target: T1, biotinylated mouse recombinant IL-12Rβ2 (produced in-house) (mouse, UniProt P97378 24-637, random biotinylated)
T1 construct: Soluble recombinant protein used for panning, ELISA and BLI; also called mIL-12RB2; mIL12RB2
T1 sequence: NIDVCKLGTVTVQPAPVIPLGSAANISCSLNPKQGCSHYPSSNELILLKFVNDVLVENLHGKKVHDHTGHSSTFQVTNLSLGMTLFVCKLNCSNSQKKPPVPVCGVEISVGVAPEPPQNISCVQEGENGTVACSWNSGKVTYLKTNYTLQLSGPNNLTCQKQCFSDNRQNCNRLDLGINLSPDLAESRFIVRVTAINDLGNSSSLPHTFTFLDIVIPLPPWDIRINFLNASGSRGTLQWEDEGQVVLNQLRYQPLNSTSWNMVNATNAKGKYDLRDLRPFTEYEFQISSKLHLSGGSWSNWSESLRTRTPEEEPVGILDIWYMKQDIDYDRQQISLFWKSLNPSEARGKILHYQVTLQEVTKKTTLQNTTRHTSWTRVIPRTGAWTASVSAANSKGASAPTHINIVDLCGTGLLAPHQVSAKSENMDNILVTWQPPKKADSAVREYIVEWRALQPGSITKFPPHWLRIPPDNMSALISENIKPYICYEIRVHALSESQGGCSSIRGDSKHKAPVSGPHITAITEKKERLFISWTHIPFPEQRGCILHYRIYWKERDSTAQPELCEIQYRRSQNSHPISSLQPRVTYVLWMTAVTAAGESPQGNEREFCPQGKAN
Assay: ELISA, periplasmic extract on biotinylated mouse IL-12Rβ2; signal over streptavidin control well
In your response, put the unit directly after the numeric value.

Would you please look over these solved cases?
binder	readout.name	value.measured
anti-IL-12Rβ2 VHH clone 3CAHM11 (clone ID 21050) (VHH, Tested as periplasmic extract; not shown: C-terminal HA tag) VHH: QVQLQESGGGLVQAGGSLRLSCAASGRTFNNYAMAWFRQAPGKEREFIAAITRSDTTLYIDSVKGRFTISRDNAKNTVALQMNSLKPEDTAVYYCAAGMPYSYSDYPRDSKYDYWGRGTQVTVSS	mIL12RB2/control (ELISA)	38.8 ratio
anti-IL-12Rβ2 VHH clone 3CRHM14 (clone ID 21053) (VHH, Tested as periplasmic extract; not shown: C-terminal HA tag) VHH: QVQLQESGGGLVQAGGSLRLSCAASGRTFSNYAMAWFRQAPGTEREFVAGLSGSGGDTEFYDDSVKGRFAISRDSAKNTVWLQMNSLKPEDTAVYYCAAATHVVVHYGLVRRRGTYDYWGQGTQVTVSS	mIL12RB2/control (ELISA)	25.1 ratio
anti-IL-12Rβ2 VHH clone 3CRHS128 (clone ID 20432) (VHH, Tested as periplasmic extract; not shown: C-terminal HA tag) VHH: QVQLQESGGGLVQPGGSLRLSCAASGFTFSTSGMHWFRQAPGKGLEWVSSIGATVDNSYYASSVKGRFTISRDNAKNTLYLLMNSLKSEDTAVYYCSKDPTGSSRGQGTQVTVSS	mIL12RB2/control (ELISA)	0.98 ratio
anti-IL-12Rβ2 VHH clone 3CRHS163 (clone ID 20438) (VHH, Tested as periplasmic extract; also called 3CANS142; not shown: C-terminal HA tag) VHH: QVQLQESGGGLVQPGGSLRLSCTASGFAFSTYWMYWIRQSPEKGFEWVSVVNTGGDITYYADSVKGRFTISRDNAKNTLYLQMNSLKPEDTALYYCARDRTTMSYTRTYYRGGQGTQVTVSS	mIL12RB2/control (ELISA)	0.93 ratio
anti-IL-12Rβ2 VHH clone 3CRHS106 (clone ID 20429) (VHH, Tested as periplasmic extract; not shown: C-terminal HA tag) VHH: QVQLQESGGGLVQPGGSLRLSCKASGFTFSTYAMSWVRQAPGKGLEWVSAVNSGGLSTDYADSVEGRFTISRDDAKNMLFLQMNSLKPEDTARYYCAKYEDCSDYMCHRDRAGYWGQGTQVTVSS	mIL12RB2/control (ELISA)	1.03 ratio
anti-IL-12Rβ2 VHH clone 3CRHM73 (clone ID 21060) (VHH, Tested as periplasmic extract; not shown: C-terminal HA tag) VHH: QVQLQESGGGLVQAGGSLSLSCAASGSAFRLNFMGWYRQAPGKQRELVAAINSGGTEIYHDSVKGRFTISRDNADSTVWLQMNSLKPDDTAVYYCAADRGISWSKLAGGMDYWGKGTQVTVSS	mIL12RB2/control (ELISA)	26.3 ratio

Supply recorded mIL12RB2/control (ELISA) for anti-IL-12Rβ2 VHH clone 3CAHS102 (clone ID 20399) (VHH, Tested as periplasmic extract; not shown: C-terminal HA tag) VHH: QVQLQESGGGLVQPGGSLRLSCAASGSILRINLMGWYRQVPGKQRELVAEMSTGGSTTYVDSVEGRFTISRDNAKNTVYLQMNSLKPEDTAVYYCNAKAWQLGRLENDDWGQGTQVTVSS here.
1.02 ratio

Return mIL12RB2/control (ELISA) (reported value) for this binder: anti-IL-12Rβ2 VHH clone 3CAHS171 (clone ID 20407) (VHH, Tested as periplasmic extract; not shown: C-terminal HA tag) VHH: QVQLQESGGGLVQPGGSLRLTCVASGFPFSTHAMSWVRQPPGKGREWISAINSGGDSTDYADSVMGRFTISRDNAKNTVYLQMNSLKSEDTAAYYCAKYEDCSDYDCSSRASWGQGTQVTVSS
0.96 ratio

Tell us which mIL12RB2/control (ELISA) value is on record for anti-IL-12Rβ2 VHH clone 3CAHS124 (clone ID 20400) (VHH, Tested as periplasmic extract; not shown: C-terminal HA tag) VHH: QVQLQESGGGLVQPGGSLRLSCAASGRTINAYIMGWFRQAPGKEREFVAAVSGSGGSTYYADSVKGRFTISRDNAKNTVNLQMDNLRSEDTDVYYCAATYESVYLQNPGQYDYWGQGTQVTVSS
1 ratio

Data provenance: patent US20260209362A1
